Reported values of % Inhibition of growth for individual entries
# Test system: mixture of Pseudomonas aeruginosa, Klebsiella pneumoniae, Staphylococcus aureus, and Bacillus subtilis
# Method summary: Growth inhibition assay (microtiter plate-based synergy assay)
# Type: cell-based
# Details: single active at 0.19 mg/l, 24 h
# number only, unit % dropped from output

- Compound: "O=c1n(Cl)c(=O)n(Cl)c(=O)n1Cl [TCI, trichloroisocyanurate]"
  Value kind: "% Inhibition of growth"
  Endpoint value: 0

[Q] Assign % Inhibition of growth to the following record: NCl
[A] 4

[Q] Quick one: give measured % Inhibition of growth for O=c1nc([O-])n(Cl)c(=O)n1Cl.[Na+] [DCI, dichloroisocyanurate]
[A] 0

[Q] Give the measured % Inhibition of growth for CC1(C)C(=O)N(Cl)C(=O)N1Br
[A] 0

[Q] Please report % Inhibition of growth for the following compound: OBr
[A] 0

[Q] Please report % Inhibition of growth for the following compound: [O][Cl+][O-] [ClO2, chlorine dioxide]
[A] 12

###

# Test system: mixture of Pseudomonas aeruginosa, Klebsiella pneumoniae, Staphylococcus aureus, and Bacillus subtilis
# Method summary: Growth inhibition assay (microtiter plate-based synergy assay)
# Type: cell-based
# Details: single active at 6.25 mg/l, 24 h
# Protocol: Growth Inhibition Assay. […] Regardless of the mechanism of action, the impact of a biocide (or combination of biocides) can be measured over time on the basis of an increase in the size of the community. The assay measures the efficacy of one or more biocides at preventing growth of a consortium of bacteria in a dilute mineral salts medium. […] Following filter sterilization, aliquots are dispensed in 100 ul quantities to sterile microtiter plate wells. […]
Value kind: % Inhibition of growth (%)
Reply with just the number (in %).

Look over these answered cases.
- Compound: "[O][Cl+][O-] [ClO2, chlorine dioxide]"
  Output unit: "%"
  % Inhibition of growth: 99
- Compound: "NCl"
  Output unit: "%"
  % Inhibition of growth: 94
- Compound: "CC1(C)C(=O)N(Cl)C(=O)N1Br"
  Output unit: "%"
  % Inhibition of growth: 100
- Compound: "O=c1n(Cl)c(=O)n(Cl)c(=O)n1Cl [TCI, trichloroisocyanurate]"
  Output unit: "%"
  % Inhibition of growth: 99
- Compound: "O=c1nc([O-])n(Cl)c(=O)n1Cl.[Na+] [DCI, dichloroisocyanurate]"
  Output unit: "%"
  % Inhibition of growth: 97

[Q] Give a short answer stating reported % Inhibition of growth for NC(=O)C(Br)(Br)C(N)=O [DBMAL, 2,2-dibromomalonamide] .
[A] 9

[Q] Identify the reported % Inhibition of growth for the following entry. OBr
[A] 57

###

# Tested on: mixture of Pseudomonas aeruginosa, Klebsiella pneumoniae, Staphylococcus aureus, and Bacillus subtilis
# Method summary: Growth inhibition assay (microtiter plate-based synergy assay)
# Format: cell-based
# Details: single active at 0.78 mg/l, 24 h
Value kind: % Inhibition of growth
The answer consists of two parts: a number and, after it, its unit.

# annotated cases, reported % Inhibition of growth shown
- Compound: "O=c1nc([O-])n(Cl)c(=O)n1Cl.[Na+] [DCI, dichloroisocyanurate]"
  % Inhibition of growth: "0%"
- Compound: "CC1(C)C(=O)N(Cl)C(=O)N1Br"
  % Inhibition of growth: "5%"
- Compound: "OBr"
  % Inhibition of growth: "0%"
- Compound: "NCl"
  % Inhibition of growth: "2%"
- Compound: "[O][Cl+][O-] [ClO2, chlorine dioxide]"
  % Inhibition of growth: "35%"

With those in mind, consider the next compound.
[Q] Query % Inhibition of growth for O=c1n(Cl)c(=O)n(Cl)c(=O)n1Cl [TCI, trichloroisocyanurate]
[A] 0%
